Hi there, I'd appreciate the recorded Kd for every entry that follows.
- Tested On: T1, human IL-18BP (human, UniProt O95998 31-194)
- T1 construct: UniProt printed as 095998; also called hIL-18BP
- T1 sequence: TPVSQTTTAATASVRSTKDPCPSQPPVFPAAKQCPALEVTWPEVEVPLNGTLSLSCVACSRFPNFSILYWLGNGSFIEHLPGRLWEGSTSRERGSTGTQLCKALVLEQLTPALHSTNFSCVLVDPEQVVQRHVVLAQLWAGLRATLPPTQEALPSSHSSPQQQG
- Method Summary: BLI, apparent KD
Write down the value, and be sure its unit follows.

// lookup Kd for SA301a LC-S93L (antibody, V domains shown) VH: QVQLQESGPGLVKPSQTLSLTCTVSGYSITSDYNSHWIRQPPGKGLEWIGYIHYSGSTNYNPSLKSRVTISRDTSKNQFSLKLSSVTAADTAVYYCARNYGSIYVNYFDYWGQGTLVTVSS VL: EIVLTQSPATLSLSPGERATLSCSASSSVSYMYWYQQKPGQAPRPLIYRTSNLASGIPARFSGSGSGTDFTLTISSLEPEDFAVYYCQQYHLYPTFGGGTKVEIK 0.23 nM

// lookup Kd for SA301a LC-S93A (antibody, V domains shown) VH: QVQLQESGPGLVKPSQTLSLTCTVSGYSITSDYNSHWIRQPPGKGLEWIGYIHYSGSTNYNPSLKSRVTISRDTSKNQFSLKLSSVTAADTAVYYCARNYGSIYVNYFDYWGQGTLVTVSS VL: EIVLTQSPATLSLSPGERATLSCSASSSVSYMYWYQQKPGQAPRPLIYRTSNLASGIPARFSGSGSGTDFTLTISSLEPEDFAVYYCQQYHAYPTFGGGTKVEIK 0.52 nM

// lookup Kd for SA301a LC-T96P (antibody, V domains shown) VH: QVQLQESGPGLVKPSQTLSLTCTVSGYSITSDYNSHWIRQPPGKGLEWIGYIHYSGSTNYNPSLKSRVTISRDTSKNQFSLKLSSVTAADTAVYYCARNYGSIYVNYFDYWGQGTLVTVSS VL: EIVLTQSPATLSLSPGERATLSCSASSSVSYMYWYQQKPGQAPRPLIYRTSNLASGIPARFSGSGSGTDFTLTISSLEPEDFAVYYCQQYHSYPPFGGGTKVEIK 0.26 nM

// lookup Kd for SA301a LC-Q90P (antibody, name in Kabat numbering, V domains shown, IgG1 kappa) VH: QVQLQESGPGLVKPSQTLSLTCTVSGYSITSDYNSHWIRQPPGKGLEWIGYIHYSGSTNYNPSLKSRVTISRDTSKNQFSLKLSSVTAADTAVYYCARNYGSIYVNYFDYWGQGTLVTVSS VL: EIVLTQSPATLSLSPGERATLSCSASSSVSYMYWYQQKPGQAPRPLIYRTSNLASGIPARFSGSGSGTDFTLTISSLEPEDFAVYYCQPYHSYPTFGGGTKVEIK 0.09 nM

// lookup Kd for SA301a LC-Y94L (antibody, V domains shown) VH: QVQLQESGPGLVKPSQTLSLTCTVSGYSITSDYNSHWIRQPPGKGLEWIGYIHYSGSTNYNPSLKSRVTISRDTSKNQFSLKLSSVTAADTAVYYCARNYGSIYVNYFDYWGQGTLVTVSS VL: EIVLTQSPATLSLSPGERATLSCSASSSVSYMYWYQQKPGQAPRPLIYRTSNLASGIPARFSGSGSGTDFTLTISSLEPEDFAVYYCQQYHSLPTFGGGTKVEIK 0.16 nM

// lookup Kd for SA301a LC-Y91F (antibody, name in Kabat numbering, V domains shown, IgG1 kappa) VH: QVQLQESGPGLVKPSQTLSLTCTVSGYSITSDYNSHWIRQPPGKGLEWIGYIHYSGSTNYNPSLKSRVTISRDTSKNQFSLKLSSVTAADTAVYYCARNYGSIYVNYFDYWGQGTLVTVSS VL: EIVLTQSPATLSLSPGERATLSCSASSSVSYMYWYQQKPGQAPRPLIYRTSNLASGIPARFSGSGSGTDFTLTISSLEPEDFAVYYCQQFHSYPTFGGGTKVEIK 0.26 nM

// lookup Kd for SA301a LC-Y91G (antibody, name in Kabat numbering, V domains shown, IgG1 kappa) VH: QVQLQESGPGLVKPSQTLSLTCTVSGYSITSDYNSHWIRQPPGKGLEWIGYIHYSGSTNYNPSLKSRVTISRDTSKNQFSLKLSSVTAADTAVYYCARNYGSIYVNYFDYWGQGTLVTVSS VL: EIVLTQSPATLSLSPGERATLSCSASSSVSYMYWYQQKPGQAPRPLIYRTSNLASGIPARFSGSGSGTDFTLTISSLEPEDFAVYYCQQGHSYPTFGGGTKVEIK 0.23 nM

// lookup Kd for SA301a LC-S93Y (antibody, V domains shown) VH: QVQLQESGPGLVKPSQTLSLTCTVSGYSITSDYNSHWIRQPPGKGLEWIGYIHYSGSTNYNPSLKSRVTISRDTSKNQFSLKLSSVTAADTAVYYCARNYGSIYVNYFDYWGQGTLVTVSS VL: EIVLTQSPATLSLSPGERATLSCSASSSVSYMYWYQQKPGQAPRPLIYRTSNLASGIPARFSGSGSGTDFTLTISSLEPEDFAVYYCQQYHYYPTFGGGTKVEIK 0.19 nM

// lookup Kd for SA301a LC-H92Y (antibody, V domains shown) VH: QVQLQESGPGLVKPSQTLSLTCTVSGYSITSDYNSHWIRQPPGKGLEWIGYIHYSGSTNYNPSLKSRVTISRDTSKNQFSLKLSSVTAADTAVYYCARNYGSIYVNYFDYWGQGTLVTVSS VL: EIVLTQSPATLSLSPGERATLSCSASSSVSYMYWYQQKPGQAPRPLIYRTSNLASGIPARFSGSGSGTDFTLTISSLEPEDFAVYYCQQYYSYPTFGGGTKVEIK 0.1 nM

// lookup Kd for SA301a LC-Q90S (antibody, name in Kabat numbering, V domains shown, IgG1 kappa) VH: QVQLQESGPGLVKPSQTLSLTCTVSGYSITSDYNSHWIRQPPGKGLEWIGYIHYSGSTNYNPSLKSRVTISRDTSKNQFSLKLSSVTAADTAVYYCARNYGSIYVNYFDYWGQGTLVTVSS VL: EIVLTQSPATLSLSPGERATLSCSASSSVSYMYWYQQKPGQAPRPLIYRTSNLASGIPARFSGSGSGTDFTLTISSLEPEDFAVYYCQSYHSYPTFGGGTKVEIK 0.41 nM
